These data points were gathered from ChEMBL document CHEMBL1201862.

Tested on: HT-29
protocol description: NCI tumour cell line growth inhibition, 48 h
The source made the active and inactive calls. No stated cut-off is given here; in the data, active = GI50 up to about 1.1 µM and inactive = higher. Residues, ends and D or L forms follow the SMILES beside them. *: point of attachment. Boc = CC(C)(C)OC(=O)*; Bz = O=C(c1ccccc1)*
// allowed return values: 1 (yes) for active, 0 (no) for inactive

Given O=C(O)c1cnc2cc(OCc3ccccc3)ccc2c1O , state the outcome it received in this test.
0 (no)

Try this compound too: CCOC(=O)CC[C@H](NC(=O)N[C@H](C)c1ccccc1)C(=O)OCC
0 (no)

Try this compound too: O=C(/C=C/c1ccccc1)c1ccccc1 [CHALCONE]
0 (no)

Try this compound too: COc1ccc(-c2oc3cc(OC)ccc3c(=O)c2O)cc1
0 (no)

Try this compound too: CN(C)CCN(C)CC1COC(C)(C)O1 (configuration not stated)
0 (no)

Try this compound too: O=C(OCc1ccccc1)C(Cc1ccc(OCc2ccccc2)cn1)NC(=O)C(F)(F)F (configuration not stated)
0 (no)

Try this compound too: O=C(/C=C/c1csc(-c2ccccc2)n1)NCc1ccc(C(=O)NCc2ccccc2)cc1
0 (no)

Try this compound too: c1ccc2c(c1)/C(=N\NC1=NCCN1)c1nc3ccccc3nc1-2
1 (yes)

Try this compound too: O=C1C=C(Nc2ccc(Cl)cc2C(=O)c2ccccc2)c2ccccc2C1=O
0 (no)

Try this compound too: O=C1NN=C(O)C2C3c4ccccc4C(c4ccccc43)C12 (configuration not stated)
0 (no)

Try this compound too: Cn1c2ccccc2n2c(=O)c3cc([N+](=O)[O-])ccc3c(C#N)c12
0 (no)

Try this compound too: c1ccc2c3c([nH]c2c1)C1c2[nH]c4ccccc4c2CCN1CC3
0 (no)

Try this compound too: COc1ccc(C2Oc3ccc(O)cc3[C@@H]2C)cc1OC (some centres not stated)
0 (no)

Try this compound too: O=C1/C(=C/c2ccccc2)CN(C(=O)OCc2ccccc2)C/C1=C\c1ccccc1
0 (no)

Try this compound too: O=C(O)CNCP(=O)(O)O [GLYPHOSATE]
0 (no)

Try this compound too: NCCC1CN(C(=O)OCc2ccccc2)c2ccccc21 (configuration not stated)
0 (no)

Try this compound too: CC(=O)Oc1c(OC(C)C)cc(=O)n2ccsc12
0 (no)

Try this compound too: COc1cc(Br)c(CC2NCCc3cc(OC)c(OC)cc32)cc1OC (configuration not stated)
0 (no)

Try this compound too: O=C1c2ccccc2-c2nc3ccc(O)cc3n21
0 (no)

Try this compound too: CC(NC(=O)C(Cc1ccc(OC(=O)c2ccccc2)cc1)NC(=O)OC(C)(C)C)C(=O)NC(Cc1ccccc1)C(=O)NCC(N)=O (configuration not stated) (Boc-Y(Bz)AFG-NH2; configuration not given here)
0 (no)

Try this compound too: COC(=O)C1=C(CCC[C@H](C)O[Si](C)(C)C(C)(C)C)NC(=O)N2[C@@H](CCO)CC[C@H]12
0 (no)

Try this compound too: CC(=O)C(=C(I)I)c1ccccc1
0 (no)

* * *

Test system: HCC 2998
protocol description: NCI tumour cell line growth inhibition, 48 h
Active and inactive are the calls of the source. Rule as the data show it: active = GI50 up to about 1.1 µM and inactive = higher.
observable: GI50

Reported GI50 for [O-]c1c2c(nn1-c1ccc(F)cc1)c1ccccc1c[n+]2Cc1ccccc1 : what is it?
11.7 µM (inactive)

Try this compound too: CCOC(=O)C1(C/C=C\CBr)CCCCCCCCCCC1=O (stereo not given)
16 µM (inactive)

Try this compound too: CCN(C(=O)N[C@@H](C)C(=O)N[C@@H](Cc1ccccc1)C(=O)OC)c1ccccc1
81.5 µM (inactive)

Try this compound too: O=C(/C=N/c1ccccc1[S-])c1ccco1.O=C(/C=N/c1ccccc1[S-])c1ccco1.[Zn+2]
10 µM (inactive)

Try this compound too: CC(=O)NNc1nc(C)c(C(=O)/C=C/c2cccc([N+](=O)[O-])c2)s1
> 100 µM (inactive)
